Please provide measured IC50 for the entries that follow.
- Test System: recombinant mTOR (Homo sapiens (Human))
- Sequence (P42345 1360-2549): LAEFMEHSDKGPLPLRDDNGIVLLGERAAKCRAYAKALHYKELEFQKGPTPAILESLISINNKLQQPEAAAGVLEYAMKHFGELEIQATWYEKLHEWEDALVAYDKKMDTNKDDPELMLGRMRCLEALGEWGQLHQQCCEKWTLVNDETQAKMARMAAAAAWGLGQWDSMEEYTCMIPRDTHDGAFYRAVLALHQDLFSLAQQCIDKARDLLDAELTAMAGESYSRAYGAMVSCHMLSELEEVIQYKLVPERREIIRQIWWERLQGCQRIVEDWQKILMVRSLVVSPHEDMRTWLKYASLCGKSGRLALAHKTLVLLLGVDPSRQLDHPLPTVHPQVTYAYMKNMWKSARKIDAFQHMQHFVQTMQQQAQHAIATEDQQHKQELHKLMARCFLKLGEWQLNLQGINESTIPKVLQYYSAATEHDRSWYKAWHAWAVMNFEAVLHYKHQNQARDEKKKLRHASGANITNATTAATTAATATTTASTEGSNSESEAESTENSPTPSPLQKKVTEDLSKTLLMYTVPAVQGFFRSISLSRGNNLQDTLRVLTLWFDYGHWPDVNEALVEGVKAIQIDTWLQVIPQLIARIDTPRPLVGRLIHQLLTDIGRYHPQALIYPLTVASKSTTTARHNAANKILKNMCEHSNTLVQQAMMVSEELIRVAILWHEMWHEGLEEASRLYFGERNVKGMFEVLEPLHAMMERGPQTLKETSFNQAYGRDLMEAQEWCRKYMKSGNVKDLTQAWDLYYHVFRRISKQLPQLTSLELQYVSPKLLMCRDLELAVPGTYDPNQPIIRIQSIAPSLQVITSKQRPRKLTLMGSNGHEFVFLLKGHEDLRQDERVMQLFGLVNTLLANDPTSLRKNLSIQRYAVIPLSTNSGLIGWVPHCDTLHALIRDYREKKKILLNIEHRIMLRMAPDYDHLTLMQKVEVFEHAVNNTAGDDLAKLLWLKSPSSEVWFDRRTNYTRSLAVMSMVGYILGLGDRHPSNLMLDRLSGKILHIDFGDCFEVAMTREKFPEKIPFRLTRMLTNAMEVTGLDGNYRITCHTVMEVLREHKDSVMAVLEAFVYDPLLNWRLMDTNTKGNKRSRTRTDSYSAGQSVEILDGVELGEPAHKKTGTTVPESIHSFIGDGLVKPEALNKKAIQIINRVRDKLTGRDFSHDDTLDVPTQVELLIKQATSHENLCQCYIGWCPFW
- Test Method Notes: mTOR inhibition assay (radiometric or LanthaScreen TR-FRET)
- Type: biochemical
- Condition Description: read-out: MTORC IC50

Some compounds with known IC50 results, for comparison:
Compound	Result
Cc1nc2ccc(-c3ccc4oc(N)nc4c3)nn2c1-c1ccncc1 [compound 56]	< 1000 nM
CS(=O)(=O)N1CCN(Cc2cc3nc(-c4ccc5oc(N)nc5c4)nc(N4CCOCC4)c3s2)CC1 [compound 129]	< 1000 nM
Nc1nc2cc(-c3ccc4ncc(N5CCOCC5)nc4c3)ccc2o1 [compound 64]	< 10000 nM

Look up IC50 for the entries below, preserving their order.
1. Nc1nc2cc(-c3ccc4ncnc(OC5CCOCC5)c4c3)ccc2o1 [compound 47]
2. CCOC(=O)N1CCN(c2cnc3ccc(-c4ccc5oc(N)nc5c4)cc3n2)CC1 [compound 119]

["< 100 nM", "< 10000 nM"]
